- target desc: UniProt:P00760
- Sequence (P00760 24-246): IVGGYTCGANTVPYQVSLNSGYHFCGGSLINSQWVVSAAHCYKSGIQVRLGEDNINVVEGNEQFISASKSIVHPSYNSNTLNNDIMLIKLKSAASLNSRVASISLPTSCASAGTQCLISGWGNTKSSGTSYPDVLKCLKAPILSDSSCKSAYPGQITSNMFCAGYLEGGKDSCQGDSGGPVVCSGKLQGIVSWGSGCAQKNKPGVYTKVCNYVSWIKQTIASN
- measurement protocol: Trypsin inhibitory activity of peptides (BApNA hydrolysis, OD405; IC50, Ki, residual activity)
- Format: biochemical
- condition context: peptide 0.098 μM
- Procedure: The substrates N-succinyl-Ala-Ala-Pro-Phe-p-nitroaniline (AAPFpNA), Nα—Benzoyl-L-arginine-4-nitroaniline hydrochloride (BApNA) and N-succinyl-[…] (AAApNA) are used in competitive binding reaction to determine the inhibitory activities against α-chymotrypsin, bovine trypsin, and porcine pancreatic elastase, respectively. […] The concentration of the peptide was measured using optical density (OD) at 280 nm. […]
Bridge positions count the residues as written; N and C are the ends. Peptide text beside a SMILES is read from it.
outcome measure: Residual trypsin activity (%)
One number for each entry, in %.

**Q:** Consider the compound CC[C@H](C)[C@@H]1NC(=O)[C@@H]2CCCN2C(=O)[C@@H]2CCCN2C(=O)[C@H]([C@@H](C)CC)NC(=O)[C@H](CO)NC(=O)[C@H](CCCCN)NC(=O)[C@H]([C@@H](C)O)NC(=O)[C@H](C)NC(=O)[C@H]([C@@H](C)O)NC(=O)CNC(=O)[C@@H](N)CSSC[C@@H](C(=O)N[C@@H](Cc2ccccc2)C(=O)O)NC1=O [BT25] (H-CGTATKSIPPICF-OH; disulfide 1-12; C-terminus assumed) . State its measured Residual trypsin activity.
**A:** 100.4

* * *

- target desc: bovine trypsin (Bos taurus, UniProt P00760)
- measurement protocol: Trypsin inhibitory activity of peptides (BApNA hydrolysis, OD405; IC50, Ki, residual activity)
- Format: biochemical
- condition context: peptide 0.0488 μM
- Procedure: The substrates N-succinyl-Ala-Ala-Pro-Phe-p-nitroaniline (AAPFpNA), Nα—Benzoyl-L-arginine-4-nitroaniline hydrochloride (BApNA) and N-succinyl-[…] (AAApNA) are used in competitive binding reaction to determine the inhibitory activities against α-chymotrypsin, bovine trypsin, and porcine pancreatic elastase, respectively. […] The concentration of the peptide was measured using optical density (OD) at 280 nm. […]
Bridge positions count the residues as written; N and C are the ends. Peptide text beside a SMILES is read from it.
Mark -1 for Residual trypsin activity values under 50%, and 1 for everything at or above.

Example entries and their recorded answers appear below.
[[record]]
molecule = "CC[C@H](C)[C@@H]1NC(=O)[C@@H]2CCCN2C(=O)[C@@H]2CCCN2C(=O)[C@H]([C@@H](C)CC)NC(=O)[C@H](CO)NC(=O)[C@H](CCCCN)NC(=O)[C@H]([C@@H](C)O)NC(=O)[C@H](C)NC(=O)[C@H](C)NC(=O)CNC(=O)[C@@H](N)CSSC[C@@H](C(=O)N[C@@H](Cc2ccccc2)C(=O)N2CCC[C@H]2C(=O)N[C@@H](CC(=O)O)C(=O)O)NC1=O [BT7] (H-CGAATKSIPPICFPD-OH; disulfide 1-12; N-terminus and C-terminus assumed)"
class_label = 1

[[record]]
molecule = "CC[C@H](C)[C@@H]1NC(=O)[C@@H]2CCCN2C(=O)[C@@H]2CCCN2C(=O)[C@H]([C@@H](C)CC)NC(=O)[C@H](CO)NC(=O)[C@H](CCCCN)NC(=O)[C@H]([C@@H](C)O)NC(=O)[C@H](Cc2ccc(O)cc2)NC(=O)[C@H](CCCNC(=N)N)NC(=O)CNC(=O)[C@@H](N)CSSC[C@@H](C(=O)N[C@@H](Cc2ccccc2)C(=O)O)NC1=O [BT53] (H-CGRYTKSIPPICF-OH; disulfide 1-12; C-terminus assumed)"
class_label = 1

[[record]]
molecule = "CC[C@H](C)[C@@H]1NC(=O)[C@@H]2CCCN2C(=O)[C@@H]2CCCN2C(=O)[C@H]([C@@H](C)CC)NC(=O)[C@H](CO)NC(=O)[C@H](CCCCN)NC(=O)[C@H]([C@@H](C)O)NC(=O)[C@H](CO)NC(=O)[C@H](CCCNC(=N)N)NC(=O)CNC(=O)[C@@H](N)CSSC[C@@H](C(=O)N[C@@H](Cc2ccccc2)C(=O)O)NC1=O [BT47] (H-CGRSTKSIPPICF-OH; disulfide 1-12; C-terminus assumed)"
class_label = 1


Turning now to a further record.
**Q:** # check: Residual trypsin activity of CC[C@H](C)[C@@H]1NC(=O)[C@@H]2CCCN2C(=O)[C@@H]2CCCN2C(=O)[C@H]([C@@H](C)CC)NC(=O)[C@H](CO)NC(=O)[C@H](CCCCN)NC(=O)[C@H]([C@@H](C)O)NC(=O)[C@@H](NC(=O)[C@@H](N)CCCNC(=N)N)CSSC[C@@H](C(=O)N[C@@H](Cc2ccccc2)C(=O)O)NC1=O [BT45] (H-RCTKSIPPICF-OH; disulfide 2-10; C-terminus assumed) is greater than or equal to 50%
**A:** -1

* * *

- target desc: chymotrypsin (Bos taurus)
- measurement protocol: in vitro
- condition context: isolated enzyme chymotrypsin, pH 7.8, Residual peak area (%)/chymotrypsin
outcome measure: remaining at 0.05 h, 60 μM

**Q:** Specify reported remaining at 0.05 h, 60 μM for the molecule shown: CC(C)C[C@H](NC(=O)[C@H](Cc1ccc(O)cc1)NC(=O)[C@H](CCC(=O)O)NC(=O)[C@H](CCC(=O)O)NC(=O)[C@H](Cc1c[nH]c2ccccc12)NC(=O)[C@H](CO)NC(=O)[C@@H](NC(=O)[C@H](Cc1ccccc1)NC(=O)[C@@H](NC(=O)[C@@H](N)[C@@H](C)O)C(C)C)[C@@H](C)O)C(=O)N[C@@H](CC(=O)O)C(=O)N[C@@H](Cc1c[nH]c2ccccc12)C(=O)N[C@H](C(=O)O)C(C)C [PCSK9_1, reference compound]
**A:** 80.7%

* * *

- target desc: α-chymotrypsin (Bos taurus, UniProt P00766)
- measurement protocol: Chymotrypsin inhibitory activity of peptides (AAPFpNA hydrolysis; IC50, Ki, residual activity)
- Assay type: biochemical
- condition context: peptide 25 μM
- Procedure: The inhibition constants of various synthetic active peptide inhibitors (molecular scaffolds) against seine proteases were measured. […] Experiments for α-chymotrypsin and bovine trypsin inhibition were measured in 20 mM CaCl2, 50 mM Tris-HCl buffer (pH 7.8), and that for porcine elastase inhibition was measured in 50 mM Tris-HCl buffer (pH 8.0). The concentration of the peptide was measured using optical density (OD) at 280 nm. […]
Bridge positions count the residues as written; N and C are the ends. Peptide text beside a SMILES is read from it.
outcome measure: Residual activity of chymotrypsin (%)
Numbers only, in %.

Below: 3 molecules and their reported Residual activity of chymotrypsin.
[[record]]
molecule = "CC[C@H](C)[C@@H]1NC(=O)[C@@H]2CCCN2C(=O)[C@@H]2CCCN2C(=O)[C@H]([C@@H](C)CC)NC(=O)[C@H](CO)NC(=O)[C@H](Cc2ccccc2)NC(=O)[C@H]([C@@H](C)O)NC(=O)[C@H](C)NC(=O)[C@H]([C@@H](C)O)NC(=O)CNC(=O)[C@@H](N)CSSC[C@@H](C(=O)N[C@@H](CC(N)=O)C(=O)O)NC1=O [CH27] (H-CGTATFSIPPICN-OH; disulfide 1-12; N-terminus and C-terminus assumed)"
target_desc = "α-chymotrypsin (Bos taurus, UniProt P00766)"
unit_text = "%"
assay_result = 15.5

[[record]]
molecule = "CC[C@H](C)[C@@H]1NC(=O)[C@H](CO)NC(=O)[C@H](Cc2ccc(O)cc2)NC(=O)[C@H]([C@@H](C)O)NC(=O)[C@H](C)NC(=O)[C@H](C)NC(=O)CNC(=O)CNC(=O)[C@@H](N)CSSC[C@@H](C(=O)N[C@@H](Cc2ccccc2)C(=O)O)NC(=O)[C@H](CCCCN)NC(=O)[C@H](C)NC(=O)[C@@H]2CCCN2C1=O [CH32] (H-CGGAATYSIPAKCF-OH; disulfide 1-13; N-terminus and C-terminus assumed)"
target_desc = "α-chymotrypsin (Bos taurus, UniProt P00766)"
unit_text = "%"
assay_result = 14.4

[[record]]
molecule = "CC[C@H](C)[C@@H]1NC(=O)[C@H](CO)NC(=O)[C@H](Cc2ccc(O)cc2)NC(=O)[C@H]([C@@H](C)O)NC(=O)[C@H](C)NC(=O)[C@H](C)NC(=O)CNC(=O)[C@@H](N)CSSC[C@@H](C(=O)N[C@@H](Cc2ccccc2)C(=O)O)NC(=O)[C@H](CCCCN)NC(=O)[C@H](C)NC(=O)[C@@H]2CCCN2C1=O [CH31] (H-CGAATYSIPAKCF-OH; disulfide 1-12; N-terminus and C-terminus assumed)"
target_desc = "α-chymotrypsin (Bos taurus, UniProt P00766)"
unit_text = "%"
assay_result = 12.7


Let us move to another entry and its Residual activity of chymotrypsin.
**Q:** Answer with the recorded Residual activity of chymotrypsin of CC[C@H](C)[C@@H]1NC(=O)[C@H](CO)NC(=O)[C@H](Cc2ccccc2)NC(=O)[C@H]([C@@H](C)O)NC(=O)CNC(=O)[C@H](Cc2ccccc2)NC(=O)CNC(=O)[C@@H](N)CSSC[C@@H](C(=O)N[C@@H](Cc2ccc(O)cc2)C(=O)NCC(=O)O)NC(=O)[C@H](CCC(N)=O)NC(=O)[C@@H]2CCCN2C(=O)[C@@H]2CCCN2C1=O [CH7] (H-CGFGTFSIPPQCYG-OH; disulfide 1-12; N-terminus and C-terminus assumed) only.
**A:** 46.0

These entries and their values trace back to patent US20230416329A1.
